# ASSAY_TEXT: in vitro
# Format: cell-based
# ASSAY_CONDITIONS: African green monkey
MEASURED_ATTRIBUTE: CC50 at 72 h

Query :: For Cc1ccc(C2C3=C(CC(c4ccccc4)CC3=O)NC3=C2C(=O)c2ccccc23)cc1 (stereo not shown) , write its CC50 at 72 h.
Result :: > 100 µM

---

# ASSAY_CONDITIONS: Balb/c mouse, single intraperitoneal 5 mg/kg
MEASURED_ATTRIBUTE: Cmax (µM)
Note: unit µM is implicit; provide only the numeric part.

Query :: For Cc1ccc(C2C3=C(CC(c4ccccc4)CC3=O)NC3=C2C(=O)c2ccccc23)cc1 (stereo not shown) [Compound 172] , write its Cmax.
Result :: 6.89
